Test: NCI Yeast Anticancer Drug Screen. Data for the cln2 rad14 strain (AID 165);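 further: 0% = growth equal to vehicle treated cultures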
Conditions: S. cerevisiae cln2 rad14 strain, at 50.0 µM, active compounds read high
About 79,000 compounds went through this panel and 15% of them were active in at least one assay; those are over-represented in the sample as a whole.
Attribute Measured: growth inhibition (%)

O=S(c1cc(Br)ccc1O)c1cc(Br)ccc1O    99.3
CCCCCCCCOC(=O)c1cc(O)c(O)c(O)c1    90
COc1cccc2c1C(=O)c1c(O)c3c(c(O)c1C2=O)C[C@@](O)(C(C)=O)C[C@@H]3OC1CC(O)C(O)C(C)O1 (stereo partly specified)    83.3
COc1ccc(C2SC(N)=Nc3c2c(C)nn3C(=O)c2ccc(Cl)cc2)cc1OC (stereo unspecified)    64.5
O=c1c(Cl)c(Cl)cnn1CCCl    7.15
CC(=O)c1ccc(N)cc1    -1.3
O=C1C=CC(=O)C(C2OC(=O)C(Br)=C2Br)=C1 (stereo unspecified)    -17.7
Cc1ccc(C(C)C)c2c1CN(CCN1COc3c(C(C)C)ccc(C)c3C1)CO2    -11.2
CC1CP(c2ccccc2)(c2ccccc2)(c2ccccc2)OC1(C(=O)c1ccccc1)c1ccccc1 (stereo unspecified)    98.9
O=C(NN1CCOC1=O)OCCCl    24.6
CN(C)CCNc1ccc(CO)c2oc3ccc(O)cc3c(=O)c12    -14.1

----------
Measured growth inhibition, listed per entry.
Experiment: NCI Yeast Anticancer Drug Screen. Data for the mec2-1 strain (AID 157)
Settings: S. cerevisiae mec2-1 strain, at 5.0 µM (retest, dose inferred, filed as 0.5), active compounds read high
The panel holds about 79,000 compounds, 15% with a hit somewhere; the sample as a whole holds those more often.
Attribute Measured: growth inhibition (%)

O=C(COc1ccc(Cl)cc1Cl)Nc1cccc(C(F)(F)F)c1    -18
[N-]=[N+]=CC(=O)OCC1NC(=O)C(COC(=O)C=[N+]=[N-])NC1=O (stereo unspecified)    2
Nc1ncnc(N)c1N=O    -13
CC(C)OP(=O)(OC(C)C)C(=Nc1ccccc1)NNc1ccc([N+](=O)[O-])cc1    -21
CCCCCCCCCCCCCCCCBr    -2
[N-]=[N+]=NC(=O)Nc1cccc(C(F)(F)F)c1    -1

----------
Measured growth inhibition, listed per entry.
Assay: NCI Yeast Anticancer Drug Screen. Data for the rad50 strain (AID 155);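 further: 0% = growth of vehicle-only cultures of the same strain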
Settings: S. cerevisiae rad50 strain growth inhibition; at 50.0 µM (retest, dose inferred, filed as 5.0); active compounds read high
Compounds without any hit were thinned out: in the full panel of roughly 79,000, 15% have a hit.
Attribute Measured: growth inhibition (%)

CC(C)CCC[C@@H](C)[C@H]1CC[C@H]2[C@@H]3CC=C4N5CCCN=C5CC[C@]4(C)[C@H]3CC[C@]12C    98
COC(=O)C1c2cc3c(cc2C(OC2OC(C)C(OC)C(C)(OC)C2OC)CC1(C)O)C(=O)c1c(O)cc2c(c1C3=O)OC1OC2(C)C(O)C([N+](C)(C)[O-])C1O (stereo unspecified)    65
NC(C/[N+]([O-])=N/O)C(=O)O (stereo unspecified)    21
CCSC(=NC)Nc1ccc(Oc2ccc(Cl)cc2)cc1    90
Cc1c(Cl)cccc1NC(=O)CC1Sc2ccccc2NC1=O (stereo unspecified)    83
O=S(=O)(O)c1ccc(NN(c2c(O)ccc3ccccc23)S(=O)(=O)O)cc1    1
CNC(=O)OCCN1c2ccccc2Sc2ccccc21    93
c1ccc(-c2[nH]c3ccccc3c2-c2ccccn2)cc1    8
Cc1cc(O)c(C(C)C)cc1Cl    79
c1ccc(CSC(SCc2ccccc2)(c2ccccc2)c2ccccc2)cc1    88
O=S(c1cc(Br)ccc1O)c1cc(Br)ccc1O    99
